Origin of values: PubChem BioAssay

Experiment: HUVEC growth inhibition – cell-based, human, primary screen (AID 575);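 further: 100% = median of untreated cell wells with 0.1% DMSO on each plate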
Details: HUVEC proliferation, CellTiter-Glo luminescence, 72 h; at 10 µM; stronger effect = lower value
// reported viability per item

Molecule	viability (%)
Cc1ccc(CS(=O)(=O)CCC(=O)N2CCC3(CC2)OCCO3)cc1	121
COC(=O)c1cncn1C(C)c1ccccc1 (stereo unspecified)	108
CC1=NOC2(C)Nc3ncnn3C(c3ccccc3)C12 (stereo unspecified)	93
O=C(c1ccc(CS(=O)(=O)c2ccccc2)o1)N1CCC2(CC1)OCCO2	96.5
Cc1cnn(C2CCN(C)CC2)c1N	102
CC1=C(C(=O)OC(C)C)[C@]2(C(=O)N(CC(N)=O)c3ccccc32)C(C#N)=C(N)O1	110
CCOc1ccc(C2SCC(=O)Nc3c2c(=O)[nH]n3C2CCCCCC2)cc1 (stereo unspecified)	63.8
Cc1ccc(C(=O)C2CN3CCC2CC3)cc1 (stereo unspecified)	94.3
CC(=O)N1CC(=O)Nc2ccc(Cl)cc2C1c1ccc(F)cc1 (stereo unspecified)	88.5
CN(C)c1cc(N)c2c(n1)CCC2 (tested in a mixture with another compound)	102
COc1ccc(CC2C(=O)NC(=O)NC2=O)c(OC)c1	114
